Test system: Setaria faberi (SETFA)
method: Test 2 glasshouse assay (IF50 formulation, X-77), post-emergence herbicidal activity
Format: in vivo
assayConditions: 360 h, application rate 125 g/ha, 15 DAA, visual score, read-out: Post-emergence herbicidal activity (percentage phytotoxicity) SETFA
Experimental: Seeds of a variety of monocotyledonous and dicotyledonous test plants are sown in standard soil in pots. The plants are cultivated for one day (for pre-emergence) or for about 12 days (for post-emergence) under controlled conditions in a glasshouse (warm climate species at 24/18° C., cool climate species at 20/16° C., both at day/night; 16 hours light; 65% humidity). […]
Overview of reported pest or weed control at 125 g/ha across a group of compounds:
Give just the numeric value; % need not be written.

C#CCC1C(=O)C(c2c(C)cc(C)cc2C)C(=O)C1CC#C (stereo not shown)	90
C#CCC1CC(=O)C(c2c(C)cc(C)cc2C)C1=O (stereo not shown)	80
C#CCC1CC(=O)C(c2c(Cl)cc(-c3ccc(F)c(F)c3)cc2OC)C1=O (stereo not shown)	100
C#CCC1CC(OC(C)=O)=C(c2c(C)cc(-c3ccc(F)cc3)cc2C)C1=O (stereo not shown)	100
C#CCC1CC(=O)C(c2c(F)cc(-c3ccc(Cl)cc3)cc2Cl)C1=O (stereo not shown)	100
C#CCC1CC(=O)C(c2c(Cl)cc(-c3ccc(F)cc3F)cc2OC)C1=O (stereo not shown)	100

Attention now turns to another entry.
Problem: State its pest or weed control at 125 g/ha on Setaria faberi (SETFA): C#CCC1CC(=O)C(c2c(F)cc(-c3ccc(Cl)cc3)cc2OC)C1=O (stereo not shown)
Solution: 90

----------
Overview of reported pest or weed control at 125 g/ha across a group of compounds:
System: Sorghum vulgare Pers. (SORVU)
method: Test 2 glasshouse assay (IF50 formulation, X-77), post-emergence herbicidal activity
Type: in vivo
assayConditions: Sorghum bicolor, 360 h, application rate 125 g/ha, 15 DAA, visual score, read-out: Post-emergence herbicidal activity (percentage phytotoxicity) SORVU
Only the number, expressed in %, is required.

C#CCC1CC(OC(C)=O)=C(c2c(C)cc(-c3ccc(F)cc3)cc2C)C1=O (stereo not shown)	100
C#CCC1CC(=O)C(c2c(Cl)cc(-c3ccc(F)cc3F)cc2OC)C1=O (stereo not shown)	100
C#CCC1CC(=O)C(c2c(C)cc(-c3ccc(F)cc3)cc2C)C1=O (stereo not shown)	100
C#CCC1CC(=O)C(c2c(Cl)cc(-c3ccc(F)c(F)c3)cc2OC)C1=O (stereo not shown)	100
C#CCC1CC(=O)C(c2c(C)cc(C)cc2C)C1=O (stereo not shown)	90
C#CCC1C(=O)C(c2c(C)cc(C)cc2C)C(=O)C1CC#C (stereo not shown)	80

Problem: Any idea what pest or weed control at 125 g/ha was measured for C#CCC1CC(=O)C(c2c(F)cc(-c3ccc(Cl)cc3)cc2Cl)C1=O (stereo not shown) ?
Solution: 100

Problem: Item C#CCC1CC(=O)C(c2c(F)cc(-c3ccc(F)c(F)c3)cc2OC)C1=O (stereo not shown) has what recorded pest or weed control at 125 g/ha?
Solution: 100

Problem: # get_value(readout='pest or weed control at 125 g/ha', item= C#CCC1CC(=O)C(c2c(F)cc(-c3ccc(Cl)cc3)cc2OC)C1=O (stereo not shown) )
Solution: 100

Problem: What pest or weed control at 125 g/ha value was documented for this compound, C#CCC1CC(=O)C(c2c(CC)cc(C)cc2CC)C1=O (stereo not shown) ?
Solution: 100

----------
Tested on: Lolium perenne (LOLPE)
method: Test 1 glasshouse assay, post-emergence herbicidal activity
Format: in vivo
assayConditions: 312 h, post-emergence (Example 1B Table 2), 62.5 g/ha, after 13 days, read-out: Percentage phytotoxicity LOLPE
Experimental: Seeds of a variety of test species are sown in standard soil in pots. […] After 13 days for pre- or post-emergence, the test is evaluated visually, and an assessed percentage phytotoxicity score is given for each herbicidal application on each plant species (where 100%=total damage to plant; 0%=no damage to plant). […]
measurementLabel: pest or weed control at 62.5 g/ha (%)
Enter your answer as a number in %; do not include the unit.

In the examples that follow, each entry is paired with its recorded pest or weed control at 62.5 g/ha.
C#CCC1CC(=O)C(c2c(C)cc(C#C)cc2C)C1=O (centres unmarked)	80
C#CCC1CC(=O)C(c2c(C)cc(-c3ncc(Cl)cc3F)cc2C)C1=O (centres unmarked)	100

Problem: Which pest or weed control at 62.5 g/ha reading was recorded for the compound C#CCC1CC(=O)C(c2c(CC)cc(C)cc2CC)C1=O (centres unmarked) ?
Solution: 100

Problem: I have this compound here, CC#CCC1CC(=O)C(c2c(C)cc(C)cc2C)C1=O (centres unmarked) , and I need its recorded pest or weed control at 62.5 g/ha.
Solution: 70

Problem: Param item = C#CCC1CC(=O)C(c2c(C)cc(-c3ccc(Cl)cn3)cc2C)C1=O (centres unmarked) ; retrieve measured pest or weed control at 62.5 g/ha.
Solution: 70

Problem: So what's the measured pest or weed control at 62.5 g/ha for this one? C#Cc1cc(C)c(C2C(=O)CC(CC#CC)C2=O)c(C)c1 (centres unmarked)
Solution: 80

Problem: Need pest or weed control at 62.5 g/ha, item C#CCC1CC(=O)C(c2c(Cl)cccc2Cl)C1=O (centres unmarked)
Solution: 60

Problem: Any idea what its pest or weed control at 62.5 g/ha is? The compound is C#CCC1CC(=O)C(c2c(Cl)cc(-c3ccc(Cl)cn3)cc2OC)C1=O (centres unmarked)
Solution: 100

----------
Test system: Digitaria sanguinalis (DIGSA)
method: Test 2 glasshouse assay (IF50 formulation, X-77), post-emergence herbicidal activity
Type: in vivo
assayConditions: 360 h, application rate 250 g/ha, 15 DAA, visual score, read-out: Post-emergence herbicidal activity (percentage phytotoxicity) DIGSA
measurementLabel: pest or weed control at 250 g/ha (%)
Expressed in %, but write only the number.

Previously resolved entries follow.
C#CCC1CC(=O)C(c2c(F)cc(-c3ccc(Cl)cn3)cc2Cl)C1=O (centres unmarked)	100
C#CCC1CC(=O)C(c2c(C)cc(-c3ccc(Cl)cn3)cc2C)C1=O (centres unmarked)	100

Problem: Form field: reported pest or weed control at 250 g/ha of C#CCC1CC(=O)C(c2cc(-c3ncc(Cl)cn3)ccc2C)C1=O (centres unmarked)
Solution: 70

Problem: Entry C#CCC1CC(=O)C(c2cc(-c3ccc(Cl)cc3Cl)ccc2C)C1=O (centres unmarked) has what pest or weed control at 250 g/ha?
Solution: 30

Problem: What pest or weed control at 250 g/ha value was documented for this compound, C#CCC1CC(=O)C(c2c(C)cc(-c3ncc(Cl)cc3F)cc2C)C1=O (centres unmarked) ?
Solution: 100

----------
Tested on: Alopecurus myosuroides (ALOMY)
method: Test 2 glasshouse assay (IF50 formulation, X-77), post-emergence herbicidal activity
Type: in vivo
assayConditions: 360 h, application rate 30 g/ha, 15 DAA, visual score, read-out: Post-emergence herbicidal activity (percentage phytotoxicity) ALOMY
# cutoff 50% applies to pest or weed control at 30 g/ha; >= gives Satisfied, < gives Not satisfied

Solved cases below.
C#CCC1CC(=O)C(c2c(Cl)cc(-c3ccc(F)cc3)cc2OC)C1=O (stereo not drawn) [Compound A7]	Not satisfied
C#CCC1CC(=O)C(c2c(Cl)cc(-c3ccc(F)c(F)c3)cc2OC)C1=O (stereo not drawn) [Compound A13]	Not satisfied
C#CCC1CC(=O)C(c2c(C)cc(-c3ccc(Cl)cn3)cc2C)C1=O (stereo not drawn) [Compound A2]	Not satisfied

Problem: Reported pest or weed control at 30 g/ha at or above 50%? C#CCC1CC(=O)C(c2c(C)cc(-c3ccc(F)cc3)cc2C)C1=O (stereo not drawn) [Compound A1]
Solution: Satisfied

Problem: Check this molecule for pest or weed control at 30 g/ha at or above 50%: C#CCC1CC(=O)C(c2c(Cl)cc(-c3ccc(F)cc3F)cc2OC)C1=O (stereo not drawn) [Compound A12]
Solution: Satisfied

Problem: Confirm if pest or weed control at 30 g/ha reported for the molecule C#CCC1CC(=O)C(c2c(C)cc(-c3ncc(Cl)cc3F)cc2C)C1=O (stereo not drawn) [Compound A3] is 50% or above.
Solution: Satisfied

Problem: Does pest or weed control at 30 g/ha meet or surpass 50% for C#CCC1CC(OC(C)=O)=C(c2c(C)cc(-c3ccc(F)cc3)cc2C)C1=O (stereo not drawn) [Compound A45] ?
Solution: Satisfied

Problem: Kindly determine if pest or weed control at 30 g/ha recorded for C#CCC1CC(=O)C(c2c(Cl)cc(-c3ccc(Cl)cc3)cc2OC)C1=O (stereo not drawn) [Compound A11] is above or exactly 50%.
Solution: Not satisfied

----------
Tested on: Avena fatua (AVEFA)
method: Test 1 glasshouse assay, post-emergence herbicidal activity
Format: in vivo
assayConditions: 312 h, post-emergence (Example 1B Table 2), 250 g/ha, after 13 days, read-out: Percentage phytotoxicity AVEFA
measurementLabel: pest or weed control at 250 g/ha (%)
API: value field is a number in %; no unit string.

These recorded examples may help you get a feel for the data.
C#CCC1CC(=O)C(c2c(C)cc(-c3ncc(Cl)cc3F)cc2C)C1=O (stereo not drawn)	100
C#CCC1CC(=O)C(c2c(Br)cc(C)cc2Br)C1=O (stereo not drawn)	70
C#CCC1CC(=O)C(c2c(CC)cc(C)cc2CC)C1=O (stereo not drawn)	100
C#CCC1CC(=O)C(c2c(Cl)cc(-c3ccc(Cl)cn3)cc2OC)C1=O (stereo not drawn)	100
C#CCC1C(=O)C(c2c(C)cc(C)cc2C)C(=O)C1CC#C (stereo not drawn)	80
C#CCC1CC(=O)C(c2c(F)cc(-c3ccc(Cl)cn3)cc2Cl)C1=O (stereo not drawn)	100

Problem: Recorded pest or weed control at 250 g/ha of C#CCC1CC(=O)C(c2c(C)cc(-c3ncc(Cl)cn3)cc2C)C1=O (stereo not drawn) , please.
Solution: 100

Problem: So what does the record say about pest or weed control at 250 g/ha for C#CCC1CC(=O)C(c2c(C)cc(C)cc2C)C1=O (stereo not drawn) ?
Solution: 90

Problem: Which pest or weed control at 250 g/ha value belongs to C#CCC1CC(=O)C(c2c(Cl)cccc2Cl)C1=O (stereo not drawn) ?
Solution: 60
